Taken from paper PMC8179002.

- experiment-description: Relative cell viability in HCHT screening (propidium iodide negative nuclei count)
- Type: cell-based
- condition-description: human, HeLa; tpre 0.5 h with inhibitor, removal, tinc 0.5 h with 1 (10 µM); read-out: GI50, concentration causing 50% cell growth inhibition
compounds and their reported GI50

Here are 4 compounds together with their reported answers.
O=C(O)CC[C@H](NC(=O)CCCCC1CCSS1(=O)=O)C(=O)O (some centres unmarked); > 500 µM
CS(=O)(=O)c1nc2ccccc2s1; > 500 µM
COCCOCCOCCNC(=O)c1ccc2c(c1)SSSSS2; ~18 µM
O=C(O)CNC(=O)c1ccc2c(c1)S[S+]([O-])S2 (centres unmarked); > 20 µM

[ask] What does the data say about its GI50? Entry: `CS(=O)(=O)c1nnc(-c2ccccc2)o1`
[reply] 410 µM

[ask] Then this compound: CCN1C(=O)C2SSC1C(=O)N2CC(=O)NCC[N+](C)(C)C (centres unmarked)
[reply] > 100 µM

[ask] Now the same for `O=C(O)CNC(=O)c1ccc2c(c1)SSSSS2`
[reply] > 100 µM

[ask] How about O=C(O)CC[C@H](NC(=O)CN1C(=O)C2SSC1C(=O)N2CCOc1ccccc1)C(=O)O (some centres unmarked) ?
[reply] > 100 µM

[ask] How about this compound: O=C(CN1C(=O)C2SSC1C(=O)N2CCOc1ccccc1)NCCS(=O)(=O)O (centres unmarked)
[reply] > 100 µM
